Data provenance: PubChem BioAssay

Reported values of growth inhibition for individual entries
# PROCEDURE DETAILS: inhibition of 3D7 malaria parasite growth – strain 3D7 (AID 2306);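 also: 0% = DMSO wells and 100% = chloroquine plus artemisinin control wells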
# MEASUREMENT CONDITIONS: P. falciparum 3D7 erythrocytic growth, LDH absorbance, 72 h; at 2 µM; hits give high values

MOLECULE	growth inhibition [%]
CN1CCN(c2ccc(-c3nc4c(C(N)=O)c(OCc5cc(Cl)cc(Cl)c5)ccc4[nH]3)cc2)CC1	100
COc1cc(Nc2nccc(N3CCC(NC(=O)C(C)c4ccc(Cl)cc4)C3)n2)cc(OC)c1OC (stereo not drawn)	97
Cc1ccc2oc3cc(-c4nn[nH]n4)ccc3c(=O)c2c1	97
O=C1OC(c2ccccc2)(c2ccccn2)CN1C1CCN(Cc2cccn2-c2ccc(Cl)cc2)CC1 (stereo not drawn)	99
Cc1cccc2[nH]c(-c3ccc(-c4cccc(NC(=O)Nc5ccccc5)c4)cc3)nc12	101
COc1ccc(Br)cc1C1[C@@H]2C(=O)N(c3ccc(Br)cc3)C(=O)[C@@H]2C2(C(=O)O)CC(OCc3ccccc3)CN12 (stereo partly drawn)	104
N#Cc1ccc(-c2nc3c(N4CCCC4)cccc3n2CCNCc2ccccc2)cc1	100
Cc1cnc2cc3c(cc2c1N1CCN(C)CC1)NCC3	102
COc1cc(Cn2ccc3c4c(N)nc(N)nc4ccc32)cc(OC)c1OC	94
COc1cccc(CNC(=O)c2ccnc(-c3ccc(CNCCOc4ccccc4)cc3)c2)c1	83
C=CCc1cc(Br)ccc1OCCCOc1c(N)nc(N)nc1N	92
CS(=O)(=O)c1ccc(CNCc2ccc(-c3cccc(-c4nc5ccc(C(F)(F)F)cc5[nH]4)c3)cc2)cc1	102
CCCOc1ccccc1C(=O)Nc1nonc1-c1ccc(OCC)c(OCC)c1	99

----------
# PROCEDURE DETAILS: inhibition of 3D7 malaria parasite growth – strain 3D7 (AID 2306);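 also: 0% = DMSO wells and 100% = chloroquine plus artemisinin control wells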
# MEASUREMENT CONDITIONS: P. falciparum 3D7 erythrocytic growth, LDH absorbance, 72 h; at 2 µM; hits give high values
REPORTED METRIC: growth inhibition (%)

COMPOUND	REPORTED METRIC	OBSERVED RESULT
COc1cc(NC(=O)c2cc3c(C)nn(-c4cccc(C(F)(F)F)c4)c3s2)cc(OC)c1OC	growth inhibition	101
COc1ccc(CN2CCC(N3CC(c4ccccc4)(c4ccccc4)OCC3=O)C2)c(O)c1 (configuration not stated)	growth inhibition	96
Cc1[nH]c2ccccc2c(=O)c1Br	growth inhibition	94
O=C(Nc1ccc(-c2nc3ccccc3[nH]2)cc1)C1CCN(Cc2ccc(F)cc2)CC1	growth inhibition	102
COc1ccc2nccc([C@@H](O)CN3CCC(NC(=O)/C=C/c4ccc(Cl)c(C(F)(F)F)c4)CC3)c2c1	growth inhibition	102
COc1ccccc1/C=C/C(=O)N(C)C1CCN(CCCCCNC(=O)/C=C/c2ccc(Cl)c(Cl)c2)C1 (configuration not stated)	growth inhibition	94
CCCCCCc1cnc2nc(N)nc(N)c2c1C	growth inhibition	93
COc1ccc(CCN2CC[C@H](Nc3nc(-c4ccc(F)c(F)c4)nc4ccccc34)C2)cc1S(N)(=O)=O	growth inhibition	99
COc1ccc2ncc(F)c([C@@H](O)CN3CCC(NCc4cc5c(cn4)OCCO5)CC3)c2c1	growth inhibition	100
Nc1c(Cl)cc(C(O)CNCCCCCCOCCC=C2CCOCC2)cc1Cl (configuration not stated)	growth inhibition	100
COCCN1CCC(NCC(C)(C)c2nc(-c3ccc(Cl)c(O)c3)c(-c3ccncc3)[nH]2)CC1	growth inhibition	102
O=C1O[C@H](c2ccccc2)[C@H](c2ccccc2)N(C(=O)OCc2ccccc2)[C@H]1Cc1ccccc1C1CCCC1	growth inhibition	97
CS(=O)(=O)Nc1ccc2[nH]cc(C3CCN(CCCCCNC(=O)/C=C/c4ccc(Cl)c(Cl)c4)CC3)c2c1	growth inhibition	101
O=C(Nc1cccc(-c2ccc(-c3nc4ccc(F)cc4[nH]3)cc2)c1)c1csnn1	growth inhibition	94
COc1cc(Cc2cnc(N)nc2N)cc(OC)c1OCCCCC(=O)O	growth inhibition	88
Cc1cc(C(=O)CN2C(=O)NC(C)(c3ccc4ccccc4c3)C2=O)c(C)n1Cc1ccco1 (configuration not stated)	growth inhibition	97
CC(C)N1CCC(N(Cc2ccc(-c3ccc(Cl)cc3)cc2)C(=O)Cn2c(CCc3cccc(F)c3F)cc(=O)c3ccccc32)CC1	growth inhibition	96

----------
# SUBJECT OF TEST: L-lactate dehydrogenase (Plasmodium falciparum (isolate CDC / Honduras)) (UniProt Q27743)
# Sequence (Q27743 whole entry, looked up): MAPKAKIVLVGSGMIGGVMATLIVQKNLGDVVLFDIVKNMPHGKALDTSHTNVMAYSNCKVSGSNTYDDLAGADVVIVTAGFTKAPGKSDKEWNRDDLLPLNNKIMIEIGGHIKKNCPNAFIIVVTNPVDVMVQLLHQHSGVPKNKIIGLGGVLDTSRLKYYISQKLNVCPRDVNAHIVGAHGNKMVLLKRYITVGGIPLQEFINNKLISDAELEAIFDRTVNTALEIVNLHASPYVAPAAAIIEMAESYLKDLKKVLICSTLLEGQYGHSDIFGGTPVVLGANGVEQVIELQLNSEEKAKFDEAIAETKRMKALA
# PROCEDURE DETAILS: PfLDH activity inhibition – cell lysate, 3D7 strain, counter-screen for P. falciparum growth inhibition project (AID 2304);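 also: 0% = vehicle and 100% = reference inhibitor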
# MEASUREMENT CONDITIONS: P. falciparum 3D7 crude extract, LDH APAD/NBT absorbance; at 2 µM; hits give high values
Calls of active or inactive are those of the source. No rule for the calls is given here.

MOLECULAR STRING	SUBJECT OF TEST	inhibition
CCNc1cc(C)nc(Nc2ccc(NC(=O)Cc3ccc(OC)cc3)cc2)n1	L-lactate dehydrogenase (Plasmodium falciparum (isolate CDC / Honduras)) (UniProt Q27743)	-1% (inactive)
CN(C(=O)Nc1ccc(F)cc1)C1CCN(CCCCCNC(=O)/C=C/c2ccc(Cl)c(Cl)c2)CC1	L-lactate dehydrogenase (Plasmodium falciparum (isolate CDC / Honduras)) (UniProt Q27743)	-5% (inactive)
CC(C)Oc1cc2c(cc1NS(=O)(=O)c1ccc(-c3cccs3)cc1)CCN(C)CC2	L-lactate dehydrogenase (Plasmodium falciparum (isolate CDC / Honduras)) (UniProt Q27743)	-4% (inactive)
COc1ccc(NC(=O)Nc2cccc(-c3cccc(-c4nc5ccc(F)cc5[nH]4)c3)c2)cc1	L-lactate dehydrogenase (Plasmodium falciparum (isolate CDC / Honduras)) (UniProt Q27743)	5% (inactive)
CC(C)c1ccc(CN(C)CCCCNC(=O)c2ccc(NC(=O)c3ccc(Cl)cc3)cc2)cc1	L-lactate dehydrogenase (Plasmodium falciparum (isolate CDC / Honduras)) (UniProt Q27743)	0% (inactive)

----------
# PROCEDURE DETAILS: human hepatoma cell viability loss – ATP luminescence, cytotoxicity control for P. falciparum antimalarial project, primary screen (AID 2303);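 also: 0% = DMSO wells and 100% = digitonin-killed cells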
# MEASUREMENT CONDITIONS: HepG2 viability, 24-48 h, at 10 µM, hits give high values
Reported values of inhibition for individual entries

MOLECULAR STRING	UNIT ANNOTATION	inhibition
O=c1ccc2ccc(F)cc2n1CCN1CCC(NCc2ccc(-c3ccccn3)s2)CC1	%	-12
Cc1cc(O)c(C(C)C)cc1C1(c2cc(C(C)C)c(O)cc2C)OC(=O)c2ccccc21	%	8
CCc1cn(CCCOC)c2ccc(C(=O)N[C@@H](Cc3ccccc3)[C@H](O)CNCc3cccc(C(F)(F)F)c3)cc12	%	8
Fc1ccc2c(NN=Cc3ccccc3F)ccnc2c1	%	10
CN1CCN(c2ccc(Nc3c(C(N)=O)cnc4cc(-c5ccoc5)ccc34)cc2C(F)(F)F)CC1	%	13
CCN1CCC(N(Cc2ccc(-c3ccc(C(F)(F)F)cc3)o2)C(=O)Cn2c(CCc3cccc(F)c3F)nc(=O)c3ccccc32)CC1	%	45
CC(=O)Nc1cccc(C(=O)Nc2cccc(-c3cccc(-c4nc5ccc(F)cc5[nH]4)c3)c2)c1	%	51
CC(=O)Nc1nc(C(=O)Nc2ccc(-c3cccc(-c4nc5ccccc5[nH]4)c3)cc2)cs1	%	68
Cc1ccc2c(NN=Cc3cccc(Cl)c3)cc(C)nc2c1	%	50
Cc1nc2nc(N)nc(N)c2c(C)c1Cc1cccs1	%	66
Cc1[nH]c2ccc(C#N)cc2c(=O)c1Br	%	2
O=C(Nc1cccc(-c2csc(-c3nc4ccccc4[nH]3)c2)c1)c1cccnc1	%	18
O=S(=O)(c1cc(Cl)ccc1Cl)N1CCCCC(c2ccc(C(F)(F)F)cc2)=N1	%	15
Cc1ccc(NC(=O)C2CCC2)cc1-c1ccc(C(=O)NCC2CC2)cc1	%	13

----------
# PROCEDURE DETAILS: inhibition of 3D7 malaria parasite growth – strain 3D7 (AID 2306);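 also: 0% = DMSO wells and 100% = chloroquine plus artemisinin control wells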
# MEASUREMENT CONDITIONS: P. falciparum 3D7 erythrocytic growth, LDH absorbance, 72 h; at 2 µM; hits give high values
REPORTED METRIC: growth inhibition (%)

MOLECULE	REPORTED METRIC	OBSERVED RESULT
CCCC(CC)n1ccc2c3c(N)nc(N)nc3ccc21 (centres undefined)	growth inhibition	94
CC(=O)Nc1cccc(CNc2cc(C)nc(Nc3ccc(C)cc3)n2)c1	growth inhibition	82
CCN(CC)c1ccc2nc(N)nc(N)c2c1Cl	growth inhibition	92
CCCCN(CCCC)CCNC(=O)c1cc(OC(F)(F)F)ccc1O	growth inhibition	93
COc1cc2nc(Nc3ccc(N4CCOCC4)cc3)nc(N)c2cc1OC	growth inhibition	95
CCOCc1cnc(C)nc1CNC(=O)c1c(C)[nH]c2ccc(C)cc12	growth inhibition	84
Cc1cc(N2CCCC2)nc(Nc2ccc(NC(=O)c3ccccc3C)cc2)n1	growth inhibition	100
O=C(NCCN1CCCC1)c1cccc(-c2ccc(-c3nc4ccccc4[nH]3)cc2)c1	growth inhibition	100
CN(C)c1ccc(OCCCCCCOc2ccccc2)cc1	growth inhibition	85
